assay: chemical genetic growth profiling, strain panel (AID 1159580);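 note: tested at 20 µM; growth read once vehicle control cultures reached saturation at 30 °C; 1 = growth at the plate median or of vehicle wells; lower values mean less growth of the strain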; details: S. cerevisiae deletion strains, growth OD, locus YDR392W, strain spt3, hits give low values
About 2,000 (36%) of roughly 5,500 compounds were called active. Inconclusive results (about 18%) are left out. The list shows a part of the results.
Measured Property: normalized growth
Give bare numbers.

# count of solved cases: 2
COc1c(O)cc2c(-c3ccccc3)cc(=O)oc2c1OC    0.848
COc1c(O)cccc1O    1.02

// COc1cc([C@@H]2c3cc4c(cc3[C@H](OC(C)=O)[C@H]3COC(=O)[C@H]23)OCO4)cc(OC)c1OC : normalized growth value = 1.01

====

test: chemical genetic growth profiling, strain panel (AID 1159580);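 note: tested at 20 µM; growth read once vehicle control cultures reached saturation at 30 °C; 1 = growth at the plate median or of vehicle wells; lower values mean less growth of the strain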; settings: S. cerevisiae deletion strains, growth OD, locus YCL029C, strain bik1, hits give low values
In all, about 5,500 compounds went through this assay and about 2,000 (36%) were called active. Not shown: some 18% with an inconclusive outcome. The list shows a part of the results.
Kindly supply the reported normalized growth values for the records listed here.
Numbers only.

C=CCc1ccccc1OCC(O)CNC(C)C (configuration not stated)    1.02
Nc1ccc(C(=O)O)c(O)c1 (tested in a mixture with another compound)    0.993

Provide reported normalized growth for each item, in the same order as listed.
1. CC[N+]1(C)CCCC(OC(=O)C(O)(c2ccccc2)c2ccccc2)C1 (configuration not stated)
2. NCCc1ccc(O)cc1
3. NCCc1cccc(O)c1
4. Clc1ccc(Cl)cc1

Marked response:
1: 1.02; 2: 1.01; 3: 0.981; 4: 0.994

Provide reported normalized growth for each item, in the same order as listed.
1. CC1(C)O[C@@H]2CC3C4C[C@H](F)C5=CC(=O)C=CC5(C)C4C(O)CC3(C)[C@]2(C(=O)CO)O1 (some centres not stated)
2. C#CCOS(=O)OC1CCCCC1Oc1ccc(C(C)(C)C)cc1 (configuration not stated)
3. CC(=O)Nc1cccc(O)c1
4. O=C(O)c1nc2cc(Cl)c(Cl)cc2[nH]c1=O
5. CC(N)Cc1ccc(O)cc1 (configuration not stated)
6. CC1NC(=O)NC1=O (configuration not stated)
7. CCCCC1C(=O)N(c2ccccc2)N(c2ccccc2)C1=O

Marked response:
1: 0.989; 2: 1.01; 3: 0.993; 4: 0.99; 5: 1.02; 6: 1.01; 7: 1.01

====

experiment: chemical genetic growth profiling, strain panel (AID 1159580);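 note: tested at 20 µM; growth read once vehicle control cultures reached saturation at 30 °C; 1 = growth at the plate median or of vehicle wells; lower values mean less growth of the strain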; conditions: S. cerevisiae deletion strains, growth OD, locus YER110C
Hit rate of the full screen: of about 5,500 compounds, about 2,000 (36%) were called active. Not shown: some 18% with an inconclusive outcome. No stated cut-off is given here; in the data, active means normalized growth mostly below about 0.91 (no sharp cut-off); inconclusive means no clear call, values can overlap the other calls; inactive means mostly above about 0.92. Some of the results follow.
Your answer must be one of the following: active, inactive

Take a look at these entries with their results.
CCCCCCCCCCCCCCCC[n+]1ccccc1    active
O=c1c2ccccc2oc2ccc(O)cc12    inactive
COc1cccc(-c2cc(=O)c3ccc(OC)cc3o2)c1    active
CC1=C2C(=CO[C@H](C)[C@H]2C)C(=O)C(C(=O)O)=C1O    inactive
O=C(/C=C/c1ccccc1)c1ccc(O)cc1    active

Here's the next entry for you.
Exam item: How was O=C1CC[C@]23C=CC(=O)NCCCCNCCCNC(=O)/C=C/c4ccc(c2c4)O[C@@H]3C1 classified in this test?
Marked response: inactive
